assayInfo: Plasma elimination of free and liposomal gemcitabine
Format: in vivo, Balb/c mice
details: female, Balb/c, mouse, iv, 33 μmole/kg; 33 μmole gemcitabine/kg i.v., plasma
Counter-ions that a name gives are not always drawn.

{"molecule": "Nc1ccn([C@@H]2O[C@H](CO)[C@@H](O)C2(F)F)c(=O)n1 [GEM, gemcitabine hydrochloride]", "MRT last, h": 3.1}

* * *

assayInfo: Plasma elimination of free and liposomal gemcitabine
Format: in vivo, Balb/c mice
details: female, Balb/c, mouse, iv, 33 μmole/kg; 33 μmole gemcitabine/kg i.v., plasma
Description: Pharmacokinetic Analysis: Balb/c mice breeders, 20-22 g, were purchased from Charles River Laboratories (St. Constant, QC, Canada) and bred in-house. Mice were housed in micro-isolator cages and given free access to food and water. […] The plasma elimination of idarubicin and gemcitabine containing tracer quantities of 3[H]-gemcitabine was assessed. […]
Counter-ions that a name gives are not always drawn.
readout: clearance (mL/min)

{"molecule": "Nc1ccn([C@@H]2O[C@H](CO)[C@@H](O)C2(F)F)c(=O)n1 [GEM, gemcitabine hydrochloride]", "readout": "clearance", "resultValue": 0.102}
